Experimental target: E. coli UvrD helicase (Escherichia coli, UniProt P03018)
Sequence (P03018 whole entry): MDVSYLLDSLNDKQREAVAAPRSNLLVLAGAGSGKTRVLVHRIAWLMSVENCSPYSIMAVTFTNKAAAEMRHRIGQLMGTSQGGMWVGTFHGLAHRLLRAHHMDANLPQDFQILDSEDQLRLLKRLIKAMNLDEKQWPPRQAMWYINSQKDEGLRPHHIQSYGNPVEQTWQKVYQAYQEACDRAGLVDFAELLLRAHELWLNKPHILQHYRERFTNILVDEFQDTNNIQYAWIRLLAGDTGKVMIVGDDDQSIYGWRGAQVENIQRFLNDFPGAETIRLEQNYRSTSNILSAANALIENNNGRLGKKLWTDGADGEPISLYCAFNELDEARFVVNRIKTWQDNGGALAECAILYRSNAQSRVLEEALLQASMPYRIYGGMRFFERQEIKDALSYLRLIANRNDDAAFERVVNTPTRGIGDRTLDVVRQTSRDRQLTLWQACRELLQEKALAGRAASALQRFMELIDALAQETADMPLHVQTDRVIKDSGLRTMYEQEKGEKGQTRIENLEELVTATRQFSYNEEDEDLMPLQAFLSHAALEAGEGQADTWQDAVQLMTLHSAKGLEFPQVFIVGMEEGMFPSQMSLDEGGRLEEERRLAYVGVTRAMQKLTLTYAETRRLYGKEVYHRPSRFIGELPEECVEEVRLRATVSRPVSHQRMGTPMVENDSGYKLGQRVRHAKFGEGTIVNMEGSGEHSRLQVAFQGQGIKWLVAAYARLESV
pIC50: −log10 of the molar value.
Endpoint name: pIC50

{"Molecule": "O=C(Nc1ccc(F)c(C(F)(F)F)c1)Nc1nnc(-c2ccncc2)s1 [ML216]", "Result": "< 4.30"}

###

Experimental target: RecQ5 (Homo sapiens)
Sequence (O94762 whole entry): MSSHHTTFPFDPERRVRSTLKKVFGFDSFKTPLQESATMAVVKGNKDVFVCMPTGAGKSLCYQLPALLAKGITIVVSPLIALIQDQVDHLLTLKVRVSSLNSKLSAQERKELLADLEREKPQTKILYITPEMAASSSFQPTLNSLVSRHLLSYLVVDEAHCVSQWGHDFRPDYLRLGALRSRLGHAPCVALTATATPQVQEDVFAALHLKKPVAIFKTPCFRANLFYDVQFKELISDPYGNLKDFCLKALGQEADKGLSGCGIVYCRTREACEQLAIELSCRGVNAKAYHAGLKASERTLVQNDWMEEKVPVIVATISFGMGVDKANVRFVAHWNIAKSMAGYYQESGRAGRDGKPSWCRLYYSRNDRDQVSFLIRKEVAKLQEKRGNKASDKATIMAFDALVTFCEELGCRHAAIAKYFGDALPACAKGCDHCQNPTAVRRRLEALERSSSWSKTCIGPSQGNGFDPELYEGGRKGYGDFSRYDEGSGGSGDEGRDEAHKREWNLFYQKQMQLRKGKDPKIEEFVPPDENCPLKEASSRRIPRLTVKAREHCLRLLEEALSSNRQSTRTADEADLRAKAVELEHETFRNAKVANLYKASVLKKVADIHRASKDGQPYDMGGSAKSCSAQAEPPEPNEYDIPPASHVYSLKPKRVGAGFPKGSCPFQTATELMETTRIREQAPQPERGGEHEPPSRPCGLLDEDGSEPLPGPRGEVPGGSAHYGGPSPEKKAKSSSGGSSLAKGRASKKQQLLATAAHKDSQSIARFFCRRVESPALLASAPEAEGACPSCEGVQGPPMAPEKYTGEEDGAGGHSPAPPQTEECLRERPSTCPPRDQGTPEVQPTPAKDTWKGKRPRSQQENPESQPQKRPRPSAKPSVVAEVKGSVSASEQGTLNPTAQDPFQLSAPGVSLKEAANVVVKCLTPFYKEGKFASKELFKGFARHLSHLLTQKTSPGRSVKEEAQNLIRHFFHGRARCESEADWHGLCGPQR
Procedure summary: Gel-based DNA unwinding assay, RECQ5
Assay type: biochemical
Endpoint name: IC50

{"Smiles structure": "O=C(Nc1ccc(F)c(C(F)(F)F)c1)Nc1nnc(-c2ccncc2)s1", "Result": "> 50 µM"}

###

Experimental target: WRN^short (WRN^500–946) (Homo sapiens)
Sequence (Q14191 500-946): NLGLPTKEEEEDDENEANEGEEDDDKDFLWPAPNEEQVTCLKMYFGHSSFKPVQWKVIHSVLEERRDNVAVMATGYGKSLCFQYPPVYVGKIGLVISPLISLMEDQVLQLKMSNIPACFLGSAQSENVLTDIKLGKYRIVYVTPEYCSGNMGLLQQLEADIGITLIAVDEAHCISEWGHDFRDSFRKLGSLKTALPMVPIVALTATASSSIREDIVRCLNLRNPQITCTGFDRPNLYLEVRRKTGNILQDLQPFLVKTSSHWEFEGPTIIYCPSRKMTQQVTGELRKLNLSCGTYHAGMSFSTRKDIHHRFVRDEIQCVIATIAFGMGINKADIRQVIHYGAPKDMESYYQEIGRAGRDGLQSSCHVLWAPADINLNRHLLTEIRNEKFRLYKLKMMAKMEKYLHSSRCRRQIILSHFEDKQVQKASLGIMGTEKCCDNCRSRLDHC
Procedure summary: Gel-based DNA unwinding assay, truncated WRN
pIC50: −log10 of the molar value.
Endpoint name: pIC50

{"Smiles structure": "O=C(Nc1ccc(F)c(C(F)(F)F)c1)Nc1nnc(-c2ccncc2)s1", "Measured number": 4.90}
